target: CST g3.1 (human, UniProt Q2NKJ3;Q9H668;Q86WV5 1-1217;1-368;1-123, K1167E;CTC1:K1164E); test: EMSA
Sequence (Q2NKJ3 whole entry K1167E, chain 1 of 3): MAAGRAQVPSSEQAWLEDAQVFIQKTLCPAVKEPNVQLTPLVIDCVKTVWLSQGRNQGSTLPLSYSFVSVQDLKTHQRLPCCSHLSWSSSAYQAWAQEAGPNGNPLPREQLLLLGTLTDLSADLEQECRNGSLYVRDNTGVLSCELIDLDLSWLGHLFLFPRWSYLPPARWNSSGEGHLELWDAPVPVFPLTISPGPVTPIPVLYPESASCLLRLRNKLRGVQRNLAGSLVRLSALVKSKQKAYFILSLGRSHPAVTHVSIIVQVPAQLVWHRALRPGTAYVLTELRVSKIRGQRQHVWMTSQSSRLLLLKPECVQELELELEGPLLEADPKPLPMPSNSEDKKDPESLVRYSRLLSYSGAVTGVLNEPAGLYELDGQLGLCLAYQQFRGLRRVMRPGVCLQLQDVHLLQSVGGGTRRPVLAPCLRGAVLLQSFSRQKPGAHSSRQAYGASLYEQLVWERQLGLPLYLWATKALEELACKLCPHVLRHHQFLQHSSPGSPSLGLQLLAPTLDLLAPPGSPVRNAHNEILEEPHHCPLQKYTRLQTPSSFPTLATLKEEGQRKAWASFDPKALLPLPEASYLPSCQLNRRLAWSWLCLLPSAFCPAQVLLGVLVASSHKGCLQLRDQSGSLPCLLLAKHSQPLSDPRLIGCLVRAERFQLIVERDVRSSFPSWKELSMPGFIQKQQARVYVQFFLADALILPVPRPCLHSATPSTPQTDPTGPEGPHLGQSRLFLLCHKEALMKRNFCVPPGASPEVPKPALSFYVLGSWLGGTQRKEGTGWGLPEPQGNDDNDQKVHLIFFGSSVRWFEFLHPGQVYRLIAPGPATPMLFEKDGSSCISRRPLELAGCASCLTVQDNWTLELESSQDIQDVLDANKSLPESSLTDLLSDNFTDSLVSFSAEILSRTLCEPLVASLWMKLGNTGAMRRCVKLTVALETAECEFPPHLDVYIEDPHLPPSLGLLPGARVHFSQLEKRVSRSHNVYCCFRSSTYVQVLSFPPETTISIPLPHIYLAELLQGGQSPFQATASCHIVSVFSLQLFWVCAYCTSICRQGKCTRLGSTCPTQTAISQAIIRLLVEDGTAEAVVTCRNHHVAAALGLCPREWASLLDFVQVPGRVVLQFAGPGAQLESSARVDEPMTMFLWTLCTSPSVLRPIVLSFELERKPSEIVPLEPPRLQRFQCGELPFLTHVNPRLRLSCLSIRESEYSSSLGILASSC
Sequence (Q9H668 whole entry, stated change not applied, chain 2 of 3): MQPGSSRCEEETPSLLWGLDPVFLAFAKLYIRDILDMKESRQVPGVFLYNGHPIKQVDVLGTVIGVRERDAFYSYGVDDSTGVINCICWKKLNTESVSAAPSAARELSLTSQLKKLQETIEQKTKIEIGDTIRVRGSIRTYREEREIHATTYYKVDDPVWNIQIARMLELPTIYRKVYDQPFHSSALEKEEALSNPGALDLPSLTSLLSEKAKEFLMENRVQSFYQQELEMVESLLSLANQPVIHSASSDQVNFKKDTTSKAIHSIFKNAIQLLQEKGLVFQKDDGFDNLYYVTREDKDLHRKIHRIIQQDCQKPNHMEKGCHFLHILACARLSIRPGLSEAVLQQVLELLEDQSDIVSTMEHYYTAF
Sequence (Q86WV5 whole entry, stated change not applied, chain 3 of 3): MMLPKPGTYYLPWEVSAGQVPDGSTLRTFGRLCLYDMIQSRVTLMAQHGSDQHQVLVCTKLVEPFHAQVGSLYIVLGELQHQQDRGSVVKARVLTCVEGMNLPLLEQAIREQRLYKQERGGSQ
assay.endpoint: Kd

Query: I would be grateful if you could share the reported Kd for TTAGGGTTAGGGTTAGGG (ssDNA) [3xTEL (EMSA)] .
Response: 97 nM
